Experimental system: T1, human interleukin 13 receptor subunit alpha 2 (IL-13RA2) (human, UniProt Q14627 27-380)
T1 sequence (looked up): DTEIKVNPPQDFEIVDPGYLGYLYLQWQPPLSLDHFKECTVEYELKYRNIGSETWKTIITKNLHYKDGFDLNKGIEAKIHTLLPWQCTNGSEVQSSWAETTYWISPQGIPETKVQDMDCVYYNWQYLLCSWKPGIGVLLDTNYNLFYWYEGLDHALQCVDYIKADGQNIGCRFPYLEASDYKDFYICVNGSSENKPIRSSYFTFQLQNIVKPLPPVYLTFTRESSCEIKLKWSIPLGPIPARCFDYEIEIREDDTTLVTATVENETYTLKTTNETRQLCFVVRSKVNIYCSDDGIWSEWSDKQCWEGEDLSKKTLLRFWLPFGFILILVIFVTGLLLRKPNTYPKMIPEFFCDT
Method description: cell-based or functional assay
Value kind: internalization EC50 (pHAb dye), A375 cells (nM)

Binder	Unit symbol	Data value
xi62A8D8 hIgG1 (antibody, V domains shown) VH: EVKLVESGGGLVKPGGSLKLSCAASGFTFSSYGMSWVRQTPEKRLEWVATISGGGSYTYYPDSVKGRFTISRDNAKNNLYLQMSSLRSEDTALYYCARRDLRSAMDYWGQGTSVTVSS VL: DIVMTQSQKFMSTSVGDRVSVTCKASQNVDINVAWYQQKPGQSPKALIYSASYRYSGVPDRFTGSGSGTDFTLTISNVQSEDLAEFFCQQYNNYPLTFGGGTKLEIK	nM	1
